Data credit: paper PMC10786919

Consider the following compounds; for each one, report its solubility kinetic.
assay_remarks: Solubility assay (kinetic solubility, PBS pH 7)
Format: physicochemical
run_parameters: pH 7, aqueous buffer, kinetic from dmso stock, pH 7, PBS; read-out: Solubility
Report the figure in µM without appending any unit label.

Request: // query solubility kinetic value for entry CC(=O)N[C@@H](CCCCN=[N+]=[N-])C(=O)NCCC(=O)N[C@@H](CC(C)C)C(=O)N[C@H](C(=O)N[C@@H](Cc1ccccc1)C(=O)N[C@]1(C)CCCCCCC=CCCC[C@@](C)(C(=O)N2CCC[C@H]2C(=O)N2CCC[C@H]2C(=O)N2CCC[C@H]2C(=O)N2CCC[C@H]2C(=O)N2CCC[C@H]2C(=O)N2CCC[C@H]2C(N)=O)NC(=O)[C@H](CC2CCC2)NC(=O)[C@H](CCC(N)=O)NC(=O)[C@H](C)NC(=O)[C@H](Cc2c[nH]c3ccccc23)NC(=O)[C@H](Cc2ccc(O)cc2)NC(=O)[C@H](CCC(=O)O)NC1=O)[C@@H](C)O
Response: 156

Request: Next up: CC(=O)N[C@@H](CC(C)C)C(=O)N[C@H](C(=O)N[C@@H](Cc1ccccc1)C(=O)N[C@]1(C)CCCCCCC=CCCC[C@@](C)(C(=O)N[C@@H](CO)C(=O)N[C@@H](C)C(=O)N[C@@H](C)C(N)=O)NC(=O)[C@@H](CC2CCC2)NC(=O)[C@H](CC(C)C)NC(=O)[C@H](CCC(N)=O)NC(=O)[C@H](Cc2c[nH]c3ccccc23)NC(=O)[C@H](Cc2ccc(O)cc2)NC(=O)[C@H](CCC(=O)O)NC1=O)[C@@H](C)O
Response: 79.3

----------
assay_remarks: Lactate dehydrogenase (LDH) release assay
Assay type: cell-based
run_parameters: LDH: Cytotoxicity assay: EC50
Description: HCT116 cells were stably transfected with a p53 responsive β-lactamase reporter and expanded in McCoy’s 5 A Medium with 10% fetal bovine serum (FBS), Blasticidin, and Penicillin/Streptomycin and then transferred to 1.5 ml freezing vials and stored under liquid nitrogen in growth media containing 5% DMSO. […] Lactate dehydrogenase release was detected using the CytoTox-ONE Homogenous Membrane Integrity Assay Kit (Promega), as per the manufacturer’s instructions. […]
pEC50: −log10 of the molar value. Positions of bridges follow the written chain, without caps; N, C: chain ends. Non-standard residues stand in square brackets, D forms with d. Residues, ends and D or L forms follow the SMILES beside them. Lys(N3) = [N-]=[N+]=NCCCC[C@H](N)C(=O)O; R8 = C=CCCCCCC[C@@](C)(N)C(=O)O; Cba = N[C@@H](CC1CCC1)C(=O)O; S5 = C=CCCC[C@](C)(N)C(=O)O; βAla = NCCC(=O)O; Sar = CNCC(=O)O
measure: pEC50

Request: // query pEC50 value for entry CC(=O)N[C@@H](CCCCN=[N+]=[N-])C(=O)NCCC(=O)N[C@@H](CC(C)C)C(=O)N[C@H](C(=O)N[C@@H](Cc1ccccc1)C(=O)N[C@@]1(C)CCCCCCC=CCCC[C@@](C)(C(=O)N[C@@H](CO)C(=O)N[C@@H](C)C(=O)N[C@@H](C)C(N)=O)NC(=O)[C@H](CC2CCC2)NC(=O)[C@H](CCC(N)=O)N(C)C(=O)[C@H](C)NC(=O)[C@H](Cc2c[nH]c3ccccc23)NC(=O)[C@H](Cc2ccc(O)cc2)NC(=O)[C@H](CCC(=O)O)NC1=O)[C@@H](C)O
Response: < 4.29

Request: Next up: CC(=O)N[C@@H](CC(C)C)C(=O)N[C@H](C(=O)N[C@@H](Cc1ccccc1)C(=O)NC(C)(C)C(=O)N[C@@H](CCC(=O)O)C(=O)N[C@@H](Cc1ccc(O)cc1)C(=O)N[C@H](Cc1c[nH]c2ccccc12)C(=O)N[C@@H](CCC(N)=O)C(=O)N[C@@H](CC(C)C)C(=O)N[C@@H](CC1CCC1)C(=O)NC(C)(C)C(=O)N[C@@H](CO)C(=O)N[C@@H](C)C(=O)N[C@@H](C)C(N)=O)[C@@H](C)O
Response: < 4.30

Request: Next up: CC(=O)N[C@@H](CCCCN=[N+]=[N-])C(=O)NCCC(=O)N[C@@H](CC(C)C)C(=O)N[C@H](C(=O)N[C@@H](Cc1ccccc1)C(=O)N[C@]1(C)CCCCCCC=CCCC[C@@](C)(C(=O)N[C@@H](CO)C(=O)N[C@@H](C)C(=O)N[C@@H](C)C(N)=O)NC(=O)[C@H](CC2CCC2)NC(=O)[C@H](CCC(N)=O)NC(=O)[C@H](C)NC(=O)[C@H](Cc2c[nH]c3cc(F)ccc23)NC(=O)[C@H](Cc2ccc(O)cc2)NC(=O)[C@H](CCC(=O)O)NC1=O)[C@@H](C)O
Response: 4.62

Request: Next up: CC(=O)N(C)CC(=O)N[C@@H](CCCCN=[N+]=[N-])C(=O)NCCC(=O)N[C@@H](C)C(=O)N[C@H](C(=O)N[C@@H](Cc1ccccc1)C(=O)N[C@]1(C)CCCCCCC=CCCC[C@@](C)(C(=O)N[C@@H](C)C(=O)N[C@@H](C)C(=O)N[C@@H](C)C(N)=O)NC(=O)[C@H](CC2CCC2)NC(=O)[C@H](C)NC(=O)[C@H](C)NC(=O)[C@H](Cc2c[nH]c3ccccc23)NC(=O)[C@H](Cc2ccc(O)cc2)NC(=O)[C@H](C)NC1=O)[C@@H](C)O [MP-895] (Ac-[Sar][Lys(N3)][βAla]ATF[R8]AYWAA[Cba][S5]AAA-NH2; staple 7-14)
Response: < 4.30

Request: Next up: CC(=O)N[C@@H](CC(C)C)C(=O)N[C@H](C(=O)N[C@@H](Cc1ccccc1)C(=O)NC(C)(C)C(=O)N[C@H](CCC(=O)O)C(=O)N[C@@H](Cc1ccc(O)cc1)C(=O)N[C@@H](Cc1c[nH]c2ccccc12)C(=O)N[C@@H](CCC(N)=O)C(=O)N[C@@H](CC(C)C)C(=O)N[C@@H](CC1CCC1)C(=O)NC(C)(C)C(=O)N[C@@H](CO)C(=O)N[C@@H](C)C(=O)N[C@@H](C)C(N)=O)[C@@H](C)O
Response: < 4.30
